target: recombinant human PKM2 (Homo sapiens)
Construct: His (N); purchased R&D Systems
test_details: Human PKM2 activation assay (Kinase-Glo Plus luminescent detection of generated ATP)
Format: biochemical
measurement_conditions: percentage activation normalised to DMSO vehicle (LOW) and 5 μM TEPP-46 (HIGH); read-out: hPKM2 Emax
Experimental: Compound activation of recombinant human PKM2 pyruvate kinase activity was determined by biochemical assay. […] The Kinase-Glo® Plus luminescence assay was from Promega. […] After 60 minutes' incubation on an orbital shaker (300 rpm, 26° C.), enzyme activity was quantified by the luminescent detection of generated ATP. […] Percentage activation was calculated by normalising […] signals to plate LOW (DMSO vehicle) and HIGH (5 μM TEPP-46) controls. […]
Below, each entry is listed with its recorded Emax.

smiles_code	Emax, %
Cn1ccc(S(=O)(=O)c2ccc3c(=O)n(Cc4cc[nH]n4)ncc3c2)n1	104
COc1ccc(Cn2ncc3cc(S(=O)(=O)c4ccccc4Cl)ccc3c2=O)cn1	77.3
Cn1cc(S(=O)(=O)c2ccc3c(=O)n(Cc4cc(Cl)[nH]n4)ncc3c2)cn1	109
O=c1c2ccc(S(=O)(=O)c3ccccc3)cc2cnn1Cc1ccn(CCO)n1	98.8

====

target: recombinant human PKM2 (Homo sapiens, UniProt P14618)
Construct: His (N); purchased R&D Systems
Sequence (P14618 2-531 limits assumed): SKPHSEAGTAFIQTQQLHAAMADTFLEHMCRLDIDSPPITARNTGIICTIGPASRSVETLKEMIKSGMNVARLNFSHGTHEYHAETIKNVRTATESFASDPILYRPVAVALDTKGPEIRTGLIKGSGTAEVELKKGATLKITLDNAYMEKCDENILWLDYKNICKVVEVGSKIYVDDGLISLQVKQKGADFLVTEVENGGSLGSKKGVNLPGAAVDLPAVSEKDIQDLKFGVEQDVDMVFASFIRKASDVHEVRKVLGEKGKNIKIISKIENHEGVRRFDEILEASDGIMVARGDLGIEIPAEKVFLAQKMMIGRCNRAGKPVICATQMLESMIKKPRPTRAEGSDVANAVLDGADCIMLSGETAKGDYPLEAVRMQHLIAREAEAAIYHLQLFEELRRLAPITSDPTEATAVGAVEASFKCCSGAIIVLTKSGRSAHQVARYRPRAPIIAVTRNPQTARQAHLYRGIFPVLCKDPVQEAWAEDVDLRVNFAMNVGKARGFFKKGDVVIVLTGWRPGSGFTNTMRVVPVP
test_details: Human PKM2 activation assay (Kinase-Glo Plus luminescent detection of generated ATP)
Format: biochemical
measurement_conditions: percentage activation normalised to DMSO vehicle (LOW) and 5 μM TEPP-46 (HIGH); read-out: hPKM2 Emax
Below, each entry is listed with its recorded Emax.
quantity_kind: Emax (%)

compound	reading
COc1ccc(S(=O)(=O)c2ccc3c(=O)n(Cc4c(Cl)ccnc4O)ncc3c2)cc1	94.9
O=c1c2cc(NCCO)c(S(=O)(=O)c3ccccc3)cc2cnn1Cc1cc[nH]n1	98
COc1ccc(S(=O)(=O)c2ccc3c(=O)n(Cc4cc(C(F)(F)F)no4)ncc3c2)cc1	66.4
O=c1c2ccc(S(=O)(=O)c3ccccc3)cc2cnn1Cc1ccccc1CCO	101
Cc1c[nH]nc1Cn1ncc2cc(S(=O)(=O)c3ccc4c(c3)CCO4)ccc2c1=O	104
COc1ccc(Cn2ncc3cc(S(=N)(=O)c4ccccc4)ccc3c2=O)cn1 (racemic)	99.7
NC(=O)c1occc1Cn1ncc2cc(S(=O)(=O)c3ccccc3)ccc2c1=O	113
Cc1ccc(S(=O)(=O)c2ccc3c(=O)n(Cc4cc[nH]n4)ncc3c2)nc1	91.8
COc1ccc(Cn2ncc3cc(S(=O)(=O)c4ccn(CCO)n4)ccc3c2=O)cn1	89.2
Cc1cccc(Cn2ncc3cc(S(=O)(=O)c4cnn(CCO)c4)ccc3c2=O)n1	103
Cc1cccc(Cn2ncc3cc(S(=O)(=O)c4cnn(C)c4)ccc3c2=O)n1	122
Cn1ccc(Cn2ncc3cc(S(=O)(=O)c4cnn(CCO)c4)ccc3c2=O)n1	94.6
Cc1cc(Cn2ncc3cc(S(=O)(=O)c4ccccc4)ccc3c2=O)sn1	99.1
COc1ccc(Cn2ncc3cc(S(=O)(=O)c4ccc5c(c4)CC(C)O5)ccc3c2=O)cn1 (stereo not shown)	95.5
Cn1ccc(Cn2ncc3cc(S(=O)(=O)c4ccccc4)ccc3c2=O)n1	110
COc1cccc(S(=O)(=O)c2ccc3c(=O)n(Cc4cc[nH]n4)ncc3c2)n1	105
O=c1c2ccc(S(=O)(=O)c3ccccc3)cc2cnn1Cc1cnc2ccccn12	68
Cc1cn(CCO)nc1Cn1ncc2cc(S(=O)(=O)c3ccccc3)ccc2c1=O	92.6
O=c1c2ccc(S(=O)(=O)c3ccc4occc4c3)cc2cnn1Cc1cc[nH]n1	112
Cc1cc(Cn2ncc3cc(S(=O)(=O)c4cnn(C)c4)ccc3c2=O)n[nH]1	102
O=c1c2ccc(S(=O)(=O)c3ccc4occc4n3)cc2cnn1Cc1cc[nH]n1	107
Cc1cc(Cn2ncc3cc(S(=O)(=O)c4ccccc4)ccc3c2=O)no1	93.2
O=c1c2ccc(S(=O)(=O)c3cnn(C(F)F)c3)cc2cnn1Cc1cc[nH]n1	99.9
Cn1ccc(Cn2ncc3cc(S(=O)(=O)c4ccc5c(c4)OCCO5)ccc3c2=O)n1	93.4
C[C@H]1Cc2cc(S(=O)(=O)c3ccc4c(=O)n(Cc5ccn(C)n5)ncc4c3)ccc2O1	106

====

target: recombinant human PKM2 (Homo sapiens, UniProt P14618)
Construct: His (N); purchased R&D Systems
test_details: Human PKM2 activation assay (Kinase-Glo Plus luminescent detection of generated ATP)
Format: biochemical
measurement_conditions: recombinant human PKM2 activation; 4-parameter logistic fit; read-out: hPKM2 EC50
pEC50: −log10 of the molar value.
Below, each entry is listed with its recorded pEC50.

smiles_code	pEC50
O=c1c2ccc(S(=O)(=O)c3cnn(C4COC4)c3)cc2cnn1Cc1ccc2c(n1)CCO2	7.63
Cn1cc(S(=O)(=O)c2cc3cnn(Cc4cc[nH]n4)c(=O)c3cc2NCCO)cn1	6.45
COc1ccc(Cn2ncc3cc(S(=O)(=O)c4cnc5c(c4)OCCO5)ccc3c2=O)cn1	6.65
COc1ccnc(S(=O)(=O)c2ccc3c(=O)n(Cc4ccc(OC)nc4)ncc3c2)c1	6.34
COc1ccc(S(=O)(=O)c2ccc3c(=O)n(Cc4ccccc4N)ncc3c2)cc1	7.37
Cc1cc(Cn2ncc3cc(S(=O)(=O)c4ccccc4)ccc3c2=O)nn1C	7.25
COc1cnc(Cn2ncc3cc(S(=O)(=O)c4ccccc4)ccc3c2=O)cn1	6.32

====

target: recombinant human PKLR (Homo sapiens)
Construct: His (N); purchased R&D Systems
Sequence (P30613 whole entry): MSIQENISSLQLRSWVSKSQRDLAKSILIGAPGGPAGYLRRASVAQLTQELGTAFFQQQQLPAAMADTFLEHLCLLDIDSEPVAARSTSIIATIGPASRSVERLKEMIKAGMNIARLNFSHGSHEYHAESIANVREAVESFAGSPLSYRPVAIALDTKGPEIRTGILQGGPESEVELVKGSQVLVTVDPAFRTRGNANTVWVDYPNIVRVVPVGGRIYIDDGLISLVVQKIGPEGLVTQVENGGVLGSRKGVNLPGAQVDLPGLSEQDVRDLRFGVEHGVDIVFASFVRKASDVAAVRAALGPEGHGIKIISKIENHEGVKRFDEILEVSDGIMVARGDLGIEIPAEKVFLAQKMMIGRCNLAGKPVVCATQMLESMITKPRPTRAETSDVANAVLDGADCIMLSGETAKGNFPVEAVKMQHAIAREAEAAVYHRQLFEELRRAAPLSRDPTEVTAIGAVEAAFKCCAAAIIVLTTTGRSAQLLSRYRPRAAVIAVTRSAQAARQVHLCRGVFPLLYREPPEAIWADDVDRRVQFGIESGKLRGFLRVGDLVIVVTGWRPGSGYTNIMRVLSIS
test_details: Human PKLR activation assay (Kinase-Glo Plus luminescent detection of generated ATP)
Assay type: biochemical
measurement_conditions: activation of recombinant human PKLR; 4-parameter logistic fit; read-out: hPKLR EC50
Method: Compound activation of recombinant human PKLR pyruvate kinase activity was determined by biochemical assay. […] The Kinase-Glo® Plus luminescence assay was from Promega. […] After 60 minutes' incubation on an orbital shaker (300 rpm, 26° C.), enzyme activity was quantified by the luminescent detection of generated ATP. […] Percentage activation was calculated by normalising […] signals to plate LOW (DMSO vehicle) and HIGH (5 μM TEPP-46) controls. […]
pEC50: −log10 of the molar value.
Kindly return y if reported pEC50 is no lower than 8; return n if it is lower.

smiles_code	class_label
COc1ccc(S(=O)(=O)c2ccc3c(=O)n(Cc4cccn(CCO)c4=O)ncc3c2)cc1	n
O=c1c2ccc(S(=O)(=O)c3ccc4c(c3)OCCO4)cc2cnn1Cc1cc[nH]n1	y
Cc1[nH]nc(Cn2ncc3cc(S(=O)(=O)c4cn[nH]c4)ccc3c2=O)c1Cl	y
O=c1c2ccc(S(=O)(=O)c3cn[nH]c3)cc2cnn1Cc1ccc2c(n1)CCO2	y
O=c1c2ccc(S(=O)(=O)c3ccccc3)cc2cnn1Cc1n[nH]cc1F	n
Cc1cccc(Cn2ncc3cc(S(=O)(=O)c4cnn(C5COC5)c4)ccc3c2=O)n1	n
COc1ccc(Cn2ncc3cc(S(=O)(=O)c4cnn(CCO)c4)ccc3c2=O)cn1	n
O=c1c2ccc(S(=O)(=O)c3ccc4c(c3)CCO4)cc2cnn1Cc1cc[nH]n1	y
O=c1c2ccc(S(=O)(=O)c3ccc4c(c3)NCCO4)cc2cnn1Cc1cc[nH]n1	y

====

target: recombinant human PKM2 (Homo sapiens, UniProt P14618)
Construct: His (N); purchased R&D Systems
test_details: Human PKM2 activation assay (Kinase-Glo Plus luminescent detection of generated ATP)
Format: biochemical
measurement_conditions: recombinant human PKM2 activation; 4-parameter logistic fit; read-out: hPKM2 EC50
Method: Compound activation of recombinant human PKM2 pyruvate kinase activity was determined by biochemical assay. […] The Kinase-Glo® Plus luminescence assay was from Promega. […] After 60 minutes' incubation on an orbital shaker (300 rpm, 26° C.), enzyme activity was quantified by the luminescent detection of generated ATP. […] Percentage activation was calculated by normalising […] signals to plate LOW (DMSO vehicle) and HIGH (5 μM TEPP-46) controls. […]
Below, each entry is listed with its recorded EC50.

smiles_code	target	output_unit	EC50
COc1ccc(S(=O)(=O)c2ccc3c(=O)n(Cc4c(F)ccnc4O)ncc3c2)cc1	recombinant human PKM2 (Homo sapiens, UniProt P14618)	nM	41.3
COc1ccc(Cn2ncc3cc(S(=O)(=O)c4cccc(OC(F)F)c4)ccc3c2=O)cn1	recombinant human PKM2 (Homo sapiens, UniProt P14618)	nM	82
Cc1cccc(Cn2ncc3cc(S(=O)(=O)c4cnn(CCN)c4)ccc3c2=O)n1	recombinant human PKM2 (Homo sapiens, UniProt P14618)	nM	304
Cc1cccc(Cn2ncc3cc(S(=O)(=O)c4cc[nH]n4)ccc3c2=O)n1	recombinant human PKM2 (Homo sapiens, UniProt P14618)	nM	109
Cc1cc(Cn2ncc3cc(S(=O)(=O)c4ccccc4)ccc3c2=O)sn1	recombinant human PKM2 (Homo sapiens, UniProt P14618)	nM	715

====

target: recombinant human PKM2 (Homo sapiens, UniProt P14618)
Construct: His (N); purchased R&D Systems
test_details: Human PKM2 activation assay (Kinase-Glo Plus luminescent detection of generated ATP)
Format: biochemical
measurement_conditions: percentage activation normalised to DMSO vehicle (LOW) and 5 μM TEPP-46 (HIGH); read-out: hPKM2 Emax
quantity_kind: Emax (%)

molecule	output_unit	reading
COc1ccc(S(=O)(=O)c2ccc3c(=O)n(Cc4cccc5c4CCN5)ncc3c2)cc1	%	97
COC(C)c1nc(S(=O)(=O)c2ccc3c(=O)n(Cc4cc5n(n4)CCO5)ncc3c2)cs1 (stereo not shown)	%	95.5
Cc1cc(Cn2ncc3cc(S(=O)(=O)c4ccc5c(c4)CCO5)ccc3c2=O)n[nH]1	%	118
NC(=O)c1ncccc1Cn1ncc2cc(S(=O)(=O)c3ccccc3)ccc2c1=O	%	105
COc1ccc(Cn2ncc3cc(S(=O)(=O)c4cccc(C)n4)ccc3c2=O)cn1	%	83
O=c1c2ccc(S(=O)(=O)c3cc4c(cn3)OCCO4)cc2cnn1Cc1cc[nH]n1	%	118
Cn1cc(S(=O)(=O)c2ccc3c(=O)n(Cc4cccc(C5CC5)n4)ncc3c2)cn1	%	95.9
Cc1cc(Cn2ncc3cc(S(=O)(=O)c4ccccc4)ccc3c2=O)n[nH]1	%	116
Cc1cccc(Cn2ncc3cc(S(=O)(=O)c4cn[nH]c4)ccc3c2=O)n1	%	108
Cc1c[nH]nc1Cn1ncc2cc(S(=O)(=O)c3cnn(C)c3)ccc2c1=O	%	92.3
CCn1ccc(Cn2ncc3cc(S(=O)(=O)c4ccccc4)ccc3c2=O)n1	%	99
O=c1c2ccc(S(=O)(=O)c3ccccc3)cc2cnn1Cc1cc2n(n1)CCO2	%	122
COc1ccc(S(=O)(=O)c2ccc3c(=O)n(Cc4cc[nH]n4)ncc3c2)cn1	%	114
Cc1nc(Cn2ncc3cc(S(=O)(=O)c4ccccc4)ccc3c2=O)cs1	%	106
COCCn1cc(S(=O)(=O)c2ccc3c(=O)n(Cc4ccc5c(n4)CCO5)ncc3c2)cn1	%	101
COC(C)c1nc(S(=O)(=O)c2ccc3c(=O)n(Cc4ccc5occc5n4)ncc3c2)cs1 (stereo not shown)	%	117
COc1ccc(Cn2ncc3cc([S@](=N)(=O)c4ccc(OC(F)F)cc4)ccc3c2=O)cn1 (single isomer, unassigned)	%	79.9
N=S(=O)(c1cn[nH]c1)c1ccc2c(=O)n(Cc3ccc4c(n3)CCO4)ncc2c1 (stereo not shown)	%	107
O=c1c2ccc(S(=O)(=O)c3cnn(C4COC4)c3)cc2cnn1Cc1ccc2c(n1)CCO2	%	96.8
Cc1cccc(Cn2ncc3cc(S(=O)(=O)c4ccccc4)ccc3c2=O)n1	%	108
Cn1cc(S(=O)(=O)c2ccc3c(=O)n(Cc4cc(F)[nH]n4)ncc3c2)cn1	%	104
Cc1cccc(Cn2ncc3cc(S(=O)(=O)c4c[nH]nc4Cl)ccc3c2=O)n1	%	95.2
Cn1ccc(Cn2ncc3cc(S(=O)(=O)c4ccccc4)c(F)cc3c2=O)n1	%	107
COc1cccc(Cn2ncc3cc(S(=O)(=O)c4ccccc4)ccc3c2=O)c1C(N)=O	%	98.9
O=c1c2ccc(S(=O)(=O)c3cn[nH]c3)cc2cnn1Cc1cccc(C2CC2)n1	%	103
